target.desc: Aβ42 (Homo sapiens, UniProt P05067)
Sequence (P05067 672-713): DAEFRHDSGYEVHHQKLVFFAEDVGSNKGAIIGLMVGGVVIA
procedure.text: Th-T (thioflavin-T) assay of Aβ42 aggregation
Assay type: biochemical
condition.set: time course, reading M60
measurement.kind: Th-T fluorescence, mean of three wells
Keep it simple and answer with nothing but the number.

[ask] # return Th-T fluorescence, mean of three wells for C=C1CCC2C(C)(CC(=O)C=C(C)C)C(O)CCC2(C)C1Cc1c(OC)oc(C)c(C)c1=O (stereo not drawn) [Compound 25] , test system: Aβ42 (Homo sapiens, UniProt P05067)
[reply] 3.734

[ask] # return Th-T fluorescence, mean of three wells for C=C1CC[C@H]2[C@]3(C)C[C@H](C=C(C)C)O[C@H]3CC[C@]2(C)[C@@H]1Cc1c(OC)oc(CO)c(C)c1=O [Compound 18] , test system: Aβ42 (Homo sapiens, UniProt P05067)
[reply] 3.988

[ask] # return Th-T fluorescence, mean of three wells for C=C1CC[C@H]2[C@]3(C)C[C@@H](C=C(C)C)O[C@H]3CC[C@]2(C)[C@@H]1Cc1c(O)c(C)c(C)oc1=O [Compound 5, subglutinol A] , test system: Aβ42 (Homo sapiens, UniProt P05067)
[reply] 2.723

[ask] # return Th-T fluorescence, mean of three wells for C=C1CCC2C(C)(CC(=O)C=C(C)C)C(O)CCC2(C)C1Cc1c(OC)oc(CO)c(C)c1=O (stereo not drawn) [Compound 19] , test system: Aβ42 (Homo sapiens, UniProt P05067)
[reply] 3.6035

[ask] # return Th-T fluorescence, mean of three wells for C=C1CCC2C3(C)CC(C=C(C)C)OC3CCC2(C)C1Cc1c(OC)oc(C)c(C)c1=O (stereo not drawn) [Compound 23] , test system: Aβ42 (Homo sapiens, UniProt P05067)
[reply] 3.981

[ask] # return Th-T fluorescence, mean of three wells for C=C1CC[C@H]2[C@]3(C)C[C@H](C=C(C)C)O[C@H]3CC[C@]2(C)[C@@H]1Cc1c(OC)oc(C)c(C)c1=O [Compound 24] , test system: Aβ42 (Homo sapiens, UniProt P05067)
[reply] 4.127

[ask] # return Th-T fluorescence, mean of three wells for C=C1CC[C@H]2[C@]3(C)C[C@@H](C=C(C)C)O[C@H]3CC[C@]2(C)[C@@H]1Cc1c(OC)oc(CO)c(C)c1=O [Compound 17] , test system: Aβ42 (Homo sapiens, UniProt P05067)
[reply] 3.637

[ask] # return Th-T fluorescence, mean of three wells for C=C1CCC2C(C)(CCC=C(C)C)C(=O)CCC2(C)C1Cc1c(O)c(C)c(C)oc1=O (stereo not drawn) [Compound 8] , test system: Aβ42 (Homo sapiens, UniProt P05067)
[reply] 2.219

[ask] # return Th-T fluorescence, mean of three wells for C=C1CC[C@H]2[C@]3(C)C[C@H](C=C(C)C)O[C@H]3CC[C@]2(C)[C@@H]1Cc1c(O)c(C)c(C)oc1=O [Compound 6, subglutinol B] , test system: Aβ42 (Homo sapiens, UniProt P05067)
[reply] 3.135

[ask] # return Th-T fluorescence, mean of three wells for C=C1CC[C@@H]2[C@](C)(CC[C@H]3O[C@H](C=C(C)C)C[C@@]23C)[C@@H]1Cc1c(O)c(C)c(C)oc1=O [Compound 10, higginsianin A] , test system: Aβ42 (Homo sapiens, UniProt P05067)
[reply] 3.12

[ask] # return Th-T fluorescence, mean of three wells for CC(C)=CCC/C(C)=C/CC/C(C)=C/CC/C(C)=C/Cc1c(O)c(C)c(C)oc1=O [Compound 2] , test system: Aβ42 (Homo sapiens, UniProt P05067)
[reply] 2.927

[ask] # return Th-T fluorescence, mean of three wells for C=C1CCC2C(C)(CC(=O)C=C(C)C)C(O)CCC2(C)C1Cc1c(O)c(C)c(C)oc1=O (stereo not drawn) [Compound 7] , test system: Aβ42 (Homo sapiens, UniProt P05067)
[reply] 3.583
